- experiment_summary: Rat study: drug plasma levels (pharmacokinetics)
- Format: in vivo
- recorded_conditions: Sprague Dawley, plasma, 1 mg/kg, Dose 1, Multiple, n = 2
quantity_measured: Cmax (ng/mL)
Please state the figure in ng/mL; there is no need to write the unit.

stdin: Recorded Cmax for O=C(O)COc1ccc2c(c1)CCN(Cc1ccc(-c3ccc(C(F)(F)F)cc3)s1)CC2 , please?
stdout: 595

----------
- experiment_summary: Rat study: drug plasma levels (pharmacokinetics)
- Assay type: in vivo
- recorded_conditions: Sprague Dawley, plasma, 0.3 mg/kg, Dose 0.3, Multiple, read-out: AUC0-24
quantity_measured: AUC(0-t) (ng·h/mL)
Please state the figure in ng·h/mL; there is no need to write the unit.

stdin: Recorded AUC(0-t) for O=C(O)COc1ccc2c(c1)CCN(Cc1ccc(-c3ccc(C(F)(F)F)cc3)s1)CC2 [compound 7] , please?
stdout: 1640
